# System: PDXHCI002
# Assay info: area over the GR curve, 72 h; higher = more effect;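 further: Dye Drop or Deep Dye Drop imaging of viable cells in 384-well plates (Hoechst nuclei, LIVE/DEAD dye), nine half-log doses, GR normalized to DMSO controls and time-zero plates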
Class (by area over the GR curve) -- L (below 0.2 GR), M (0.2 GR to below 0.5 GR), H (0.5 GR or more)

Molecule: CCNC(=O)c1noc(-c2cc(C(C)C)c(O)cc2O)c1-c1ccc(CN2CCOCC2)cc1 [Luminespib/NVP-AUY922] (max 1 µM)
Test target: PDXHCI002
Label class: H

[Q] Please classify: CNc1nc(-c2ccc3c(N)n[nH]c3c2)cc(N2C[C@@H](C(=O)NC3CCCCC3)CC[C@H]2C)n1 (max 10 µM)
[A] L

[Q] Note: place this molecule into its band. Item: CCCCOc1c(C(=O)c2c(F)cc(C)cc2F)c[nH]c2nncc1-2 (max 10 µM)
[A] L

[Q] Which bin, given its area over the GR curve, does COc1cc(N2CCN(C)CC2)ccc1Nc1ncc2c(n1)N(C)c1ccccc1C(=O)N2CC(F)(F)F [FMF-03-146-1] occupy?
[A] L

[Q] Hi, small favor: classify O=C(CCCCCCC(=O)Nc1ccccc1)NO [Vorinostat] (max 10 µM) by its area over the GR curve when you get a moment.
[A] H

[Q] # bin label for CC[C@@]1(O)C(=O)OCc2c1cc1n(c2=O)Cc2cc3c(CN(C)C)c(O)ccc3nc2-1 [Topotecan] (max 10 µM)
[A] H

[Q] Looking at CN(C)C(=O)c1cc2cnc(Nc3ccc(N4CCNCC4)cn3)nc2n1C1CCCC1 [LEE011/Ribociclib] (max 10 µM) , which class would you pick?
[A] L

[Q] Which class holds CCC(=O)Nc1ccc(C(=O)Nc2ccc(Nc3ncc4c(n3)N(C)c3ccc(C)cc3C(=O)N4C)cc2)cc1 [FMF-03-145-1] ?
[A] H

[Q] GET /class?item= Cc1nc(-c2cn3c(n2)-c2ccc(-c4cnn(C(C)(C)C(N)=O)c4)cc2OCC3)n(C(C)C)n1 [Taselisib/GDC0032] (max 10 µM)
[A] M

[Q] Band assignment needed for NC(=O)Nc1cc(-c2cccc(F)c2)sc1C(=O)N[C@H]1CCCNC1 [AZD7762] (max 10 µM) please.
[A] H

[Q] Band assignment needed for COc1cccc2c1C(=O)c1c(O)c3c(c(O)c1C2=O)C[C@@](O)(C(=O)CO)C[C@@H]3O[C@H]1C[C@H](N)[C@H](O)[C@H](C)O1 [Doxorubicin] (max 3.162 µM) please.
[A] H

[Q] Given CO[C@H]1C[C@@H]2CC[C@@H](C)[C@@](O)(O2)C(=O)C(=O)N2CCCC[C@H]2C(=O)O[C@H]([C@H](C)C[C@@H]2CC[C@@H](OCCO)[C@H](OC)C2)CC(=O)[C@H](C)/C=C(\C)[C@@H](O)[C@@H](OC)C(=O)[C@H](C)C[C@H](C)/C=C/C=C/C=C/1C [Everolimus] (max 10 µM) , name the class its area over the GR curve places it in.
[A] L

[Q] Exam item: assign O=C(c1cc(Cc2n[nH]c(=O)c3ccccc23)ccc1F)N1CCN(C(=O)C2CC2)CC1 [Olaparib/AZD2281] (max 10 µM) to the correct category.
[A] L

[Q] Form: Item = COc1cc2c(Oc3ccc4[nH]c(C)cc4c3F)ncnc2cc1OCCCN1CCCC1 [Cediranib/AZD2171] (max 10 µM) ; Class = ?
[A] M

[Q] Please report the category associated with CN(C)C/C=C/C(=O)Nc1ccc(C(=O)Nc2cccc(Nc3cc(-c4c[nH]c5ccccc45)ncn3)c2)cc1 [THZ-P1-2] (max 10 µM) , nothing else.
[A] L

[Q] Category lookup for the molecule CC(=O)c1c(C)c2cnc(Nc3ccc(N4CCN(CCOCCOCCOCCNC(=O)COc5cccc6c5C(=O)N(C5CCC(=O)NC5=O)C6=O)CC4)cn3)nc2n(C2CCCC2)c1=O (centres undefined) [BSJ-03-123] (max 10 µM)
[A] M

[Q] Consider CN(C)C/C=C/C(=O)Nc1ccc(C(=O)N2CCC[C@@H](Nc3ncc(Cl)c(-c4c[nH]c5ccccc45)n3)C2)cc1 [THZ531] (max 1 µM) . To which area over the GR curve class does it belong?
[A] M
